The reported measurements were obtained from patent US20090118184A1.

system: T1, factor VIIIa A1/A3C1C2 dimer, wild type (human, UniProt P00451 20-391; P00451 1709-2351)
T1 sequence 1: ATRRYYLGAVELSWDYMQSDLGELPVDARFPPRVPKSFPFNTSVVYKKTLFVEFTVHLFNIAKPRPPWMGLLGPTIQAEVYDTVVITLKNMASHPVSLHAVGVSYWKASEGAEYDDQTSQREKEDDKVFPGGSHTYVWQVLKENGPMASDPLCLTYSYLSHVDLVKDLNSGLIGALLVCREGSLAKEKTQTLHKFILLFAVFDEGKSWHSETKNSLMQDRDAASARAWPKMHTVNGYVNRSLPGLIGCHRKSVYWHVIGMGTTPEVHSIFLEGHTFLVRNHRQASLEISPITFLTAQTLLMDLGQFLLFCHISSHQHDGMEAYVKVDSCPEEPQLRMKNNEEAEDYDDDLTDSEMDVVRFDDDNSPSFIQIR
T1 sequence 2: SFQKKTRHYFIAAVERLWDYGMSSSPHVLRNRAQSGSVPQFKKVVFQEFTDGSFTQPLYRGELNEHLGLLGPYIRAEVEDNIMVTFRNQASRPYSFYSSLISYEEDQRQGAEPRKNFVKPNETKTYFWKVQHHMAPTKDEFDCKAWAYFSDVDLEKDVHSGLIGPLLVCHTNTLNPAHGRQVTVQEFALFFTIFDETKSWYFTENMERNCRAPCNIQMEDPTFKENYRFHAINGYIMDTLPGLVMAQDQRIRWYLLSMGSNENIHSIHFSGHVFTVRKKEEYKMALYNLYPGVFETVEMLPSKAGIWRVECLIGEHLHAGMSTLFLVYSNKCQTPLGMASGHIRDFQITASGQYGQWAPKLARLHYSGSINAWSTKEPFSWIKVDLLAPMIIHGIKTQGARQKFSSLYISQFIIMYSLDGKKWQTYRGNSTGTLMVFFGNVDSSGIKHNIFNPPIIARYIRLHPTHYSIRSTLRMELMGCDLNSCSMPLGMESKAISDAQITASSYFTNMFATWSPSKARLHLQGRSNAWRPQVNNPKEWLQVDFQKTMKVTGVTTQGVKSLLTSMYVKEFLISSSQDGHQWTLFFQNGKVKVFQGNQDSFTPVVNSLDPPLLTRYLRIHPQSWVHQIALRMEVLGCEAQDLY
assay comment: cell-based or functional assay
measured metric: Factor VIIIa decay rate, FIXa (+) (min⁻¹)

>>> assay_value("factor VIIIa A2 subunit, E540A (other) SVAKKHPKTWVHYIAAEEEDWDYAPLVLAPDDRSYKSQYLNNGPQRIGRKYKKVRFMAYTDETFKTREAIQHESGILGPLLYGEVGDTLLIIFKNQASRPYNIYPHGITDVRPLYSRRLPKGVKHLKDFPILPGEIFKYKWTVTVEDGPTKSDPRCLTRYYSSFVNMARDLASGLIGPLLICYKESVDQRGNQIMSDKRNVILFSVFDENRSWYLTENIQRFLPNPAGVQLEDPEFQASNIMHSINGYVFDSLQLSVCLHEVAYWYILSIGAQTDFLSVFFSGYTFKHKMVYEDTLTLFPFSGETVFMSMENPGLWILGCHNSDFRNRGMTALLKVSSCDKNTGDYYEDSYEDISAYLLSKNNAIEPR")
0.0091
>>> assay_value("factor VIIIa A2 subunit, S524A (other) SVAKKHPKTWVHYIAAEEEDWDYAPLVLAPDDRSYKSQYLNNGPQRIGRKYKKVRFMAYTDETFKTREAIQHESGILGPLLYGEVGDTLLIIFKNQASRPYNIYPHGITDVRPLYSRRLPKGVKHLKDFPILPGEIFKYKWTVTVEDGPTKADPRCLTRYYSSFVNMERDLASGLIGPLLICYKESVDQRGNQIMSDKRNVILFSVFDENRSWYLTENIQRFLPNPAGVQLEDPEFQASNIMHSINGYVFDSLQLSVCLHEVAYWYILSIGAQTDFLSVFFSGYTFKHKMVYEDTLTLFPFSGETVFMSMENPGLWILGCHNSDFRNRGMTALLKVSSCDKNTGDYYEDSYEDISAYLLSKNNAIEPR")
0.455
>>> assay_value("factor VIIIa A2 subunit, Y664F (other) SVAKKHPKTWVHYIAAEEEDWDYAPLVLAPDDRSYKSQYLNNGPQRIGRKYKKVRFMAYTDETFKTREAIQHESGILGPLLYGEVGDTLLIIFKNQASRPYNIYPHGITDVRPLYSRRLPKGVKHLKDFPILPGEIFKYKWTVTVEDGPTKSDPRCLTRYYSSFVNMERDLASGLIGPLLICYKESVDQRGNQIMSDKRNVILFSVFDENRSWYLTENIQRFLPNPAGVQLEDPEFQASNIMHSINGYVFDSLQLSVCLHEVAYWYILSIGAQTDFLSVFFSGYTFKHKMVFEDTLTLFPFSGETVFMSMENPGLWILGCHNSDFRNRGMTALLKVSSCDKNTGDYYEDSYEDISAYLLSKNNAIEPR")
0.0148
>>> assay_value("factor VIIIa A2 subunit, T522A (other) SVAKKHPKTWVHYIAAEEEDWDYAPLVLAPDDRSYKSQYLNNGPQRIGRKYKKVRFMAYTDETFKTREAIQHESGILGPLLYGEVGDTLLIIFKNQASRPYNIYPHGITDVRPLYSRRLPKGVKHLKDFPILPGEIFKYKWTVTVEDGPAKSDPRCLTRYYSSFVNMERDLASGLIGPLLICYKESVDQRGNQIMSDKRNVILFSVFDENRSWYLTENIQRFLPNPAGVQLEDPEFQASNIMHSINGYVFDSLQLSVCLHEVAYWYILSIGAQTDFLSVFFSGYTFKHKMVYEDTLTLFPFSGETVFMSMENPGLWILGCHNSDFRNRGMTALLKVSSCDKNTGDYYEDSYEDISAYLLSKNNAIEPR")
0.027
